These measurements were taken from patent US6235717A.

The following compounds are shown together with reported IC50 values.
# assayed-target: UniProt:F1SU04
# assay-info: "ECE" assay with porcine aortic "ECE" prep, fluorogenic substrate Suc-Ile-Ile-Trp-MCA
# Assay type: biochemical
# condition-set: porcine aortic endothelial cell ECE prep; 80 μM Suc-Ile-Ile-Trp-MCA; 15-20 min preincubation; overnight at 37° C.; pH 7.0; AMC fluorescence
Non-standard residues stand in square brackets, D forms with d. Residues, ends and D or L forms follow the SMILES beside them. *: point of attachment. Phe(4-Br) = N[CH](Cc1ccc(Br)cc1)C(=O)O; Cbz = O=C(OCc1ccccc1)*; Ahx = NCCCCCC(=O)O; Bn = c1ccc(C*)cc1

compound	units-text	IC50
CC[C@H](C)[C@H](NC(=O)CCCCCNC(=O)OCc1ccccc1)C(=O)N[C@H](C(=O)N[C@H](C=O)Cc1c[nH]c2ccccc12)[C@@H](C)CC [Example 71] ({Cbz-Ahx}-Ile-Ile-Trp-aldehyde)	nM	40
CCOc1ccc(CC(NC(=O)C(Cc2ccc(OCc3ccccc3)cc2)NC(=O)OCc2ccccc2)C(=O)NC(C=O)Cc2ccc(Br)cc2)cc1 (stereo not shown) [Example 99] (Cbz-Tyr(Bn)-Tyr(Et)-[Phe(4-Br)]-aldehyde; configuration not given here)	nM	20
CCC(C)C(C=O)NC(=O)C(NC(=O)C(NC(=O)OCc1ccccc1)C(C)CC)C(C)CC (stereo not drawn) [Example 22] (Cbz-Ile-Ile-Ile-aldehyde; configuration not given here)	nM	4000
CCOc1ccc(C[C@H](NC(=O)OCc2ccccc2)C(=O)N[C@@H](Cc2ccc(OCc3ccccc3)cc2)C(=O)N[C@H](C=O)Cc2ccc(Br)cc2)cc1 [Example 100] (Cbz-Tyr(Et)-Tyr(Bn)-[Phe(4-Br)]-aldehyde)	nM	60

====

# assayed-target: endothelin converting enzyme (ECE) (Sus scrofa, UniProt F1SU04)
# Sequence (F1SU04 entry or part of it): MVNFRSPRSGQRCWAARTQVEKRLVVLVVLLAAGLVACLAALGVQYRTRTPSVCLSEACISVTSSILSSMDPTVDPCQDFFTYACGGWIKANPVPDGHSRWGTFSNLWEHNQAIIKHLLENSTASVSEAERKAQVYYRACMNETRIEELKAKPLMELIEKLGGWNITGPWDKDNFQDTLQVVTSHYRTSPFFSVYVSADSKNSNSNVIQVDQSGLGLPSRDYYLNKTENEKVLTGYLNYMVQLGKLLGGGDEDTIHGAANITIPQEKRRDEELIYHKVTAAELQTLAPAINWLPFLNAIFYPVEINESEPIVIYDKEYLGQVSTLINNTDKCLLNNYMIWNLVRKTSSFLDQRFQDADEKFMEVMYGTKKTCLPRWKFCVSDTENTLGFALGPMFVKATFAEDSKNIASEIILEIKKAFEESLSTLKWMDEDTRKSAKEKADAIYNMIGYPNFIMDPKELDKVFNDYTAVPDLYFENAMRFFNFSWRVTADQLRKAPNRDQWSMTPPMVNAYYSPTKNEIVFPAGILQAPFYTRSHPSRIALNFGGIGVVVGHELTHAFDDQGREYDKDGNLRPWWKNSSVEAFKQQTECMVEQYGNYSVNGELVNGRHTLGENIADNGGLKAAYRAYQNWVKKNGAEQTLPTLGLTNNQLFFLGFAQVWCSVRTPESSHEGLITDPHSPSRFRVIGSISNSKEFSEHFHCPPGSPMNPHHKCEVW
# assay-info: "ECE" assay with porcine aortic "ECE" prep, fluorogenic substrate Suc-Ile-Ile-Trp-MCA
# Type: biochemical
# condition-set: porcine aortic endothelial cell ECE prep; 80 μM Suc-Ile-Ile-Trp-MCA; 15-20 min preincubation; overnight at 37° C.; pH 7.0; AMC fluorescence
pIC50: −log10 of the molar value. Non-standard residues stand in square brackets, D forms with d. Residues, ends and D or L forms follow the SMILES beside them. *: point of attachment. Phe(4-Br) = N[CH](Cc1ccc(Br)cc1)C(=O)O; Cha = N[CH](CC1CCCCC1)C(=O)O; Cbz = O=C(OCc1ccccc1)*; Bn = c1ccc(C*)cc1; OtBu = CC(C)(C)O*
The following molecules are shown together with reported pIC50 values.
measured-property: pIC50

molecule	assayed-target	measured-property	number
CC[C@H](C)[C@H](NC(=O)[C@H](CC(=O)OC(C)(C)C)NC(=O)OCc1ccccc1)C(=O)N[C@H](C(=O)N[C@H](C=O)Cc1c[nH]c2ccccc12)[C@@H](C)CC [Example 64] (Cbz-D(OtBu)IIW-aldehyde)	endothelin converting enzyme (ECE) (Sus scrofa, UniProt F1SU04)	pIC50	7.22
CC[C@H](C)[C@H](NC(=O)OCc1ccccc1)C(=O)N[C@H](C(=O)N[C@H](C=O)Cc1ccccc1)[C@@H](C)CC [Example 16] (Cbz-Ile-Ile-Phe-aldehyde)	endothelin converting enzyme (ECE) (Sus scrofa, UniProt F1SU04)	pIC50	6.40
O=C[C@H](Cc1c[nH]c2ccccc12)NC(=O)[C@H](Cc1c[nH]c2ccccc12)NC(=O)[C@H](Cc1c[nH]c2ccccc12)NC(=O)CCCCC1SCC2NC(=O)NC21 (stereo partly shown)	endothelin converting enzyme (ECE) (Sus scrofa, UniProt F1SU04)	pIC50	8.30
CCOC(=O)C1OC1C(=O)NCC(Cc1c[nH]c2ccccc12)NC(=O)[C@@H](NC(=O)[C@@H](NC(=O)OCc1ccccc1)[C@@H](C)CC)[C@@H](C)CC (stereo partly shown)	endothelin converting enzyme (ECE) (Sus scrofa, UniProt F1SU04)	pIC50	5.00
O=CC(Cc1ccc(Br)cc1)NC(=O)C(Cc1ccc(OCc2ccccc2)cc1)NC(=O)C(CC1CCCCC1)NC(=O)OCc1ccccc1 (stereo not shown) [Example 97] (Cbz-[Cha]-Tyr(Bn)-[Phe(4-Br)]-aldehyde; configuration not given here)	endothelin converting enzyme (ECE) (Sus scrofa, UniProt F1SU04)	pIC50	5.00
CC[C@H](C)[C@H](NC(=O)OCc1ccccc1)C(=O)N[C@H](C(=O)N[C@H](C=O)CC(C)C)[C@@H](C)CC [Example 17] (Cbz-Ile-Ile-Leu-aldehyde)	endothelin converting enzyme (ECE) (Sus scrofa, UniProt F1SU04)	pIC50	5.36
O=C[C@H](Cc1c[nH]c2ccccc12)NC(=O)[C@H](Cc1ccc(OCc2ccccc2)cc1)NC(=O)[C@H](Cc1ccc(Br)cc1)NC(=O)OCc1ccccc1 [Example 19] (Cbz-[Phe(4-Br)]-Tyr(Bn)-Trp-aldehyde)	endothelin converting enzyme (ECE) (Sus scrofa, UniProt F1SU04)	pIC50	8.00
CC[C@H](C)[C@H](NC(=O)OCc1ccccc1)C(=O)N[C@H](C(=O)NC(Cc1ccccc1)C(=O)C(=O)O)[C@@H](C)CC (stereo partly shown)	endothelin converting enzyme (ECE) (Sus scrofa, UniProt F1SU04)	pIC50	6.22
CC[C@H](C)[C@H](NC(=O)[C@H](Cc1ccccc1)NC(=O)OCc1ccccc1)C(=O)N[C@H](C=O)Cc1c[nH]c2ccccc12 [Example 25] (Cbz-Phe-Ile-Trp-aldehyde)	endothelin converting enzyme (ECE) (Sus scrofa, UniProt F1SU04)	pIC50	6.52
CC[C@H](C)[C@H](NC(=O)OCc1ccccc1)C(=O)N[C@H](C(=O)NC(CNC(=O)CCN1C(=O)C=CC1=O)Cc1c[nH]c2ccccc12)[C@@H](C)CC (stereo partly shown)	endothelin converting enzyme (ECE) (Sus scrofa, UniProt F1SU04)	pIC50	6.00
